Sourced from paper PMC12040169

test: in vitro; conditions: human, hela cells, % viability

| molecule | viability at 28.5 h, 10 µM (%) |
| --- | --- |
| Clc1ccc(/C=N/Nc2nnn[nH]2)c(Cl)c1 [CBK262034] | 98 |
| CC(NC(=O)C(C)(C)C)c1nc(-c2cccnc2)n[nH]1 (centres unmarked) [CBK104007] | 94.2 |
| COc1ccc(-c2nc3c(n2O)CCc2c-3no[n+]2[O-])cc1OC [CBK262350] | 80.3 |
| COc1ccc(CC(=O)NCC(c2cccs2)N2CCOCC2)cc1F (centres unmarked) [CBK305618] | 99.5 |
| O=C(c1nccs1)C1CCN(C(=O)Cc2ccsc2)CC1 [CBK284176] | 95.5 |
| CC(C)CC1C(=O)NCCN1Cc1ccccc1 (centres unmarked) [CBK005336] | 92 |
| O=C(/C=C/c1c(F)cccc1Cl)Nc1nnn[nH]1 [CBK265447] | 102 |
| COc1ccc(-c2nn(-c3ccccc3)cc2C(=O)Nc2ccc(C(=O)O)cc2)cc1 [CBK296121] | 106 |
| Cc1cccnc1CN1CCC2(CCc3ccccc3C(=O)N2)C1 (centres unmarked) [CBK284611] | 96.4 |
| CN(C)Cc1ccc(-c2cc3occ(-c4ccccc4)c3c(=O)n2C)cc1 [CBK025372] | 103 |
| Cc1conc1C(=O)N1CCCCC1CN1CCOCC1 (centres unmarked) [CBK304771] | 92.7 |
| COc1cncc(-c2cccc(NCC(c3cccnc3)N(C)C)n2)c1 (centres unmarked) [CBK037741] | 93.6 |
| COc1ncc(-c2nccnc2N2CCCC2CO)c(OC)n1 (centres unmarked) [CBK036638] | 92.8 |
| Cc1cccc(C(C)(C)C)c1OCCCCNCCN [CBK265092G] | 110 |
| CN(Cc1cccnc1)C(=O)Cc1ccc(-n2cccn2)cc1 [CBK297726] | 85.6 |
| CC1CCc2c(sc(NC(=S)NC(=O)c3ccc4c(c3)OCCO4)c2C(N)=O)C1 (centres unmarked) [CBK266370] | 101 |
| CN(C(=O)CN1CCN(c2cc(-c3cccc([N+](=O)[O-])c3)ncn2)CC1)c1ccccc1 [CBK091137] | 103 |
| c1ccc(-c2nnc3ccccc3c2NCCCN2CCOCC2)cc1 [CBK066892] | 93.9 |
| CCc1cc2c(=O)c(-c3nc(C)cs3)c(C)oc2cc1OCc1ccc([N+](=O)[O-])cc1 [CBK268305] | 101 |
| Cc1cc(S(=O)(=O)N(CCC#N)c2ccccc2)c(C)cc1Cl [CBK043618] | 85.7 |

----------
assay: in vitro; details: human, hela cells, % viability
Here the recorded viability at 28.5 h, 10 µM is given for each entry.

| compound | unit.name | viability at 28.5 h, 10 µM |
| --- | --- | --- |
| CS(=O)(=O)Nc1ccc(CNC(=O)c2ccccc2Nc2cccc(C(F)(F)F)c2)cc1 [CBK161732] | % | 85.5 |
| CCN(CC)CCCNc1nc2ccc(O)cc2s1 [CBK023880C] | % | 105 |
| O=S(=O)(Nc1nc(-c2c(F)cccc2Cl)cs1)c1cc(Cl)c(Cl)s1 [CBK200025] | % | 92.8 |
| O=C(NC(=S)Nc1ccc(Br)cc1)c1ccccc1 [CBK092022] | % | 83.5 |
| Cc1cc(O)cc(C2CCCN(C(=O)c3cccc(F)c3)C2)n1 (centres unmarked) [CBK283440] | % | 100 |
| Cc1ccc2c(N)c(C(=O)c3ccc4c(c3)OCCO4)sc2n1 [CBK270265] | % | 84.2 |
| COc1ccc(C(F)(F)F)cc1N [CBK038366] | % | 89.6 |
| Cn1cc(CCN2CCC(C(=O)NC(=O)Nc3ccccc3)CC2)c2ccccc21 [CBK034867] | % | 83.6 |
| Cc1cc(NS(=O)(=O)c2ccc(Oc3ccc(-c4ccccc4)cc3)nc2)no1 [CBK295343] | % | 90.8 |
| CC(C)CN1C(=O)c2ccc(C(=O)NCc3ccc(C(=O)O)cc3)cc2C1=O [CBK286898] | % | 116 |
| CC(C)Nc1nc2cc(Cl)c(Cl)cc2nc1OCCN(C)C [CBK113419] | % | 103 |
| OCCN(CC#CCC(O)(c1ccccc1)c1ccccc1)CCO [CBK263623] | % | 94.1 |
| O[C@@H]1CN(Cc2ccc(F)c(F)c2)CC[C@H]1NC1CC1 [CBK283319] | % | 94 |
| Cc1cc(C)nc(NC(=O)C(C)Oc2ccc(Cl)cc2C)n1 (centres unmarked) [CBK268111] | % | 94.8 |
| COc1cc(CNC(=O)c2ccc3[nH]ccc3c2)cc(OC)c1OC [CBK149073] | % | 91 |
| C[N+](C)(C)CCC(=O)CCC(=O)O [CBK262012I] | % | 102 |
| Cn1nnnc1SCC(=O)Nc1ccc(Cl)c(Cl)c1 [CBK058218] | % | 108 |
| O=C(CSCc1ccc(Cl)cc1Cl)Nc1ccc(Oc2ccc3c(c2)C(=O)NC3=O)cc1 [CBK266779] | % | 92.2 |
| CCc1cc(CNC(=O)C(c2ccccc2)N2CCC(C)CC2)on1 (centres unmarked) [CBK281592] | % | 92.4 |
| CC(C)(CN1C(=O)c2ccccc2C1=O)C(O)C(=O)O (centres unmarked) [CBK286582] | % | 82.3 |
